# Tested on: rhythmic bladder contractions induced by substance P
# Run description: Inhibitory effect on the rhythmic bladder contractions induced by substance P in anesthetized rats
# Type: in vivo, rat
# Assay setup: time during which frequency of rhythmic contraction was completely inhibited, 0.25 mg/kg of the compound, substance P infusion
# Description: Inhibitory effect on the rhythmic bladder contractions induced by substance P in anesthetized rats For the experiments, Sprague-Dawley female rats (9 to 12 weeks old) weighing between 200 to 300 g were used. After urethane anesthetization (subcutaneously administered with a dose of 1.2 g/kg), cannulae were placed in both right and left femoral veins. One intravenous catheter was used for administration of compounds, and the other was for the substance P (0.33 μg/kg/min) infusion. […]
Outcome measure: 100% inhibition time range

> print(dat)
                                   compound             outcome.measure                meas.value
1  CCc1nc(-c2ccc(F)cc2)oc1-c1cccnc1 [Preparation Example 532]  100% inhibition time range  C (A≧20>B≧10>C (minute))
2  CS(=O)(=O)NC(=O)Cc1nc(-c2ccc(F)cc2)oc1-c1ccsc1.[Na] [Preparation Example 370]  100% inhibition time range  C (A≧20>B≧10>C (minute))
3  CCc1nc(-c2ccc(Cl)cc2)[nH]c1-c1ccccc1 [Preparation example 59]  100% inhibition time range  B (A≧20>B≧10>C (minute))
4  Cc1ccc(-c2nc(CC(=O)O)c(-c3ccc(Cl)s3)o2)s1 [Preparation Example 458]  100% inhibition time range  B (A≧20>B≧10>C (minute))
5  CN(C)c1ccc(-c2nc(-c3ccsc3)c(CC(=O)O)s2)cn1 [Preparation Example 596]  100% inhibition time range  B (A≧20>B≧10>C (minute))

// field: 100% inhibition time range; key: O=C(O)Cc1nc(-c2nc3ccccc3s2)oc1-c1ccc(Cl)s1 [Preparation Example 446] ; value = C (A≧20>B≧10>C (minute))

// field: 100% inhibition time range; key: CN(C)c1ccc(-c2nc(-c3ccc(Cl)cc3)c(CC(=O)O)o2)cn1 [Preparation Example 514] ; value = B (A≧20>B≧10>C (minute))

// field: 100% inhibition time range; key: OCc1[nH]c(-c2csc(Cl)c2)nc1-c1cccnc1 [Preparation Example 482] ; value = C (A≧20>B≧10>C (minute))

// field: 100% inhibition time range; key: COc1ccc(-c2nc(CC(=O)O)c(-c3ccc(Cl)s3)o2)cc1O [Preparation Example 290] ; value = B (A≧20>B≧10>C (minute))

// field: 100% inhibition time range; key: CN(C)c1ncc(-c2nc(-c3ccc(Cl)cc3)c(CC(=O)O)o2)cn1 [Preparation Example 513] ; value = C (A≧20>B≧10>C (minute))

----------
Entries and their EC50
# Test system: isolated rabbit urinary bladder
# Run description: Relaxation effect on potassium-induced contraction of isolated rabbit urinary bladder
# Assay type: cell-based
# Assay setup: Oryctolagus cuniculus; 50% relaxation concentration; high-K+ (30 mM) pre-contracted rabbit bladder strips; relaxation as percentage of the maximum produced by 0.1 mM papaverine; read-out: EC50 value range

Kindly note: isolated rabbit urinary bladder, O=C(O)Cc1nc(-c2cc3ccccc3s2)oc1-c1ccc(Cl)cc1 [Preparation Example 454] , EC50 value reported: 1000 to 3000 nM

Kindly note: isolated rabbit urinary bladder, CN(C)c1ccc(-c2nc(-c3ccsc3)c(CC(=O)O)s2)cn1 [Preparation Example 596] , EC50 value reported: 1000 to 3000 nM

Kindly note: isolated rabbit urinary bladder, CCOc1ccc(-c2nc(CC(=O)[O-])c(-c3ccc(Cl)s3)o2)cn1.[Na+] [Preparation Example 367, acetic acid sodium salt] , EC50 value reported: 500 to 1000 nM

Kindly note: isolated rabbit urinary bladder, CCNC(=O)Cc1nc(-c2ccc(F)cc2)oc1-c1ccsc1 [Preparation Example 616] , EC50 value reported: 1000 to 3000 nM

Kindly note: isolated rabbit urinary bladder, CCc1nc(-c2csc(Br)c2)[nH]c1-c1cccnc1 [Preparation example 19] , EC50 value reported: ≤ 500 nM

Kindly note: isolated rabbit urinary bladder, Cc1ccc(-c2nc(CC(=O)O)c(-c3ccc(Cl)s3)o2)cn1 [Preparation Example 452] , EC50 value reported: ≤ 500 nM

----------
# Test system: rhythmic bladder contractions induced by substance P
# Run description: Inhibitory effect on the rhythmic bladder contractions induced by substance P in anesthetized rats
# Assay type: in vivo, rat
# Assay setup: time during which frequency of rhythmic contraction was completely inhibited, 0.25 mg/kg of the compound, substance P infusion
Outcome measure: 100% inhibition time range

Solved entries (count: 5):
> print(dat)
                                   compound                meas.value
1  O=C(O)Cc1nc(-c2cc3ccccc3cn2)oc1-c1cccs1 [Preparation Example 276]  C (A≧20>B≧10>C (minute))
2  N#Cc1cccc(-c2oc(-c3ccc(F)cc3)nc2CC(=O)O)c1 [Preparation Example 522]  B (A≧20>B≧10>C (minute))
3  COc1ccc(-c2nc(-c3ccc(Cl)cc3)c(CC(=O)O)o2)cc1 [Preparation Example 517]  C (A≧20>B≧10>C (minute))
4  O=C(O)Cc1nc(-c2ccc(F)cc2)oc1-c1ccc(Cl)c(F)c1 [Preparation Example 253]  A (A≧20>B≧10>C (minute))
5  CN(C)c1ccc(-c2nc(-c3ccc(Cl)cc3)c(CC(=O)O)s2)cn1 [Preparation Example 576]  A (A≧20>B≧10>C (minute))

// field: 100% inhibition time range; key: O=C(O)Cc1sc(-c2ccc(Cl)cc2)nc1-c1ccc(Cl)s1 [Preparation Example 588] ; value = C (A≧20>B≧10>C (minute))

// field: 100% inhibition time range; key: O=C(O)Cc1nc(-c2ccc(F)cc2)oc1-c1ccccc1F [Preparation Example 162] ; value = C (A≧20>B≧10>C (minute))

// field: 100% inhibition time range; key: CCCc1nc(-c2ccc(F)cc2)[nH]c1-c1ccsc1 [Preparation Example 172] ; value = C (A≧20>B≧10>C (minute))

// field: 100% inhibition time range; key: CC(C)COc1cc(-c2oc(-c3ccc(F)cc3)nc2CC(=O)O)ccc1O [Preparation Example 292] ; value = C (A≧20>B≧10>C (minute))

----------
Outcome measure: melting point

Solved entries (count: 2):
> print(dat)
                                   molecule  outcome.measure     meas.value
1  CCOC(=O)Cc1nc(-c2ccc(SC)cc2)oc1-c1ccsc1 [Preparation Example 409]    melting point    77 to 78 °C
2  Clc1ccc(-c2nc(Cc3nnn[nH]3)c(-c3ccccc3)s2)cc1 [Preparation Example 632]    melting point  213 to 214 °C

API: the following record is the query input.
// field: melting point; key: CCOC(=O)Cc1nc(-c2ccc(N(C)C)cc2)oc1-c1ccc(Cl)s1 [Preparation Example 384] ; value = 118 to 119 °C

----------
# Tested on: rhythmic bladder contractions induced by substance P
# Run description: Inhibitory effect on the rhythmic bladder contractions induced by substance P in anesthetized rats
# Format: in vivo, rat
# Assay setup: time during which frequency of rhythmic contraction was completely inhibited, 0.25 mg/kg of the compound, substance P infusion
Outcome measure: 100% inhibition time range

Solved entries (count: 5):
> print(dat)
                                   compound                             system.tested                meas.value
1  COc1ccc(-c2nc(CC(=O)O)c(-c3ccsc3)o2)cc1C [Preparation Example 438]  rhythmic bladder contractions induced by substance P  C (A≧20>B≧10>C (minute))
2  CSc1ncc(-c2nc(CC(=O)O)c(-c3ccc(Cl)c(F)c3)o2)cn1 [Preparation Example 462]  rhythmic bladder contractions induced by substance P  C (A≧20>B≧10>C (minute))
3  CCc1nc(-c2ccc(F)cc2)[nH]c1-c1ccsc1 [Preparation Example 171]  rhythmic bladder contractions induced by substance P  B (A≧20>B≧10>C (minute))
4  N#CCCc1nc(-c2ccc(F)cc2)oc1-c1cccs1 [Preparation Example 337]  rhythmic bladder contractions induced by substance P  C (A≧20>B≧10>C (minute))
5  C[S+]([O-])Cc1nc(-c2cccc(F)c2)[nH]c1-c1ccccc1 (centres unmarked) [Preparation example 136]  rhythmic bladder contractions induced by substance P  C (A≧20>B≧10>C (minute))

// field: 100% inhibition time range; key: COc1ccc(-c2nc(-c3cccs3)c(CC(=O)O)s2)cc1 [Preparation Example 578] ; value = B (A≧20>B≧10>C (minute))

// field: 100% inhibition time range; key: Cc1nc(-c2ccc(F)cc2)[nH]c1-c1cccnc1 [Preparation Example 187] ; value = B (A≧20>B≧10>C (minute))

----------
Entries and their EC50
# System: isolated rabbit urinary bladder
# Run description: Relaxation effect on potassium-induced contraction of isolated rabbit urinary bladder
# Type: cell-based
# Assay setup: Oryctolagus cuniculus; 50% relaxation concentration; high-K+ (30 mM) pre-contracted rabbit bladder strips; relaxation as percentage of the maximum produced by 0.1 mM papaverine; read-out: EC50 value range

// field: EC50; key: CC(C)c1ccc(-c2nc(CC(=O)O)c(-c3ccc(Cl)s3)o2)cc1 [Preparation Example 273] ; value = 1000 to 3000 nM

Where do the numbers come from? From patent US7759373B2.
